# test_target: BACE1 ECD (as used in the enzyme activity assay) (UniProt P56817 22-457, limits assumed)
# Sequence (P56817 22-457 limits assumed): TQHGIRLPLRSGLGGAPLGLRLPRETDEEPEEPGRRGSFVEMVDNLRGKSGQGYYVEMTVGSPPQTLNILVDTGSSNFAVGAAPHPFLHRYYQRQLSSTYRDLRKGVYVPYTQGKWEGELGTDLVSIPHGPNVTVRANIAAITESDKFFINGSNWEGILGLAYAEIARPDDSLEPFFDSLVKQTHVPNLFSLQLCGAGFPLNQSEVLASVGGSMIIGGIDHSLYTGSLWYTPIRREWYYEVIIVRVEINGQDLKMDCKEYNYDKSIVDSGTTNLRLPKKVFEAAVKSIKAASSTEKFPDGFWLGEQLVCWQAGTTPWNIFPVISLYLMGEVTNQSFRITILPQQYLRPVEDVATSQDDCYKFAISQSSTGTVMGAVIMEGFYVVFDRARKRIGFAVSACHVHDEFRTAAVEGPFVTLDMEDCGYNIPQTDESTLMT
# experiment_summary: cell-based or functional assay
quantity: EC50, FRET short substrate assay (nM)
Supply the numeric figure in nM, leaving out any unit text.

Provide only the value of recorded EC50, FRET short substrate assay for 5903 (antibody, V domains shown) VH: QLQLQESGPGLVKPSETLSLTCTVSGGSISSSSYYWGWIRQPPGKGLEWIGMIYYSGSTWYNPSLKSRVTISVDTSKNQFSLKLSSVTAADTAVYYCARVGHGISYFDLWGRGTLVTVSS VL: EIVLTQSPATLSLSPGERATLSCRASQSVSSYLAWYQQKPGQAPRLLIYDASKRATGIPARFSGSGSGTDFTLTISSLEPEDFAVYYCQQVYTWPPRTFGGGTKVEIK 3.12

Value source: patent US20210206877A1
